pIC50: −log10 of the molar value.
Record type: pIC50 measurement. Applies to: human JAK3 (Homo sapiens (Human), UniProt P52333)
PARAMETER: pIC50

[[record]]
molecule = "CCC(=O)c1cnc(Nc2ccnc(O[C@H]3CCN(C)C3)n2)cc1Nc1cccc(-c2ncn(C)n2)c1OC [Compound 18KK]"
assay_result = "≤ 6.30"

[[record]]
molecule = "CCC(=O)c1cnc(NC(=O)CCc2cnn(C)c2)cc1Nc1cccc(-c2ncn(C)n2)c1OC [Compound 23F]"
assay_result = "≤ 6.30"

[[record]]
molecule = "CCC(=O)c1cnc(Nc2ccc3c(c2)COB3O)cc1Nc1cccc(-c2ncn(C)n2)c1OC [Compound 15BB]"
assay_result = "≤ 6.30"

[[record]]
molecule = "COc1c(-c2ncn(C)n2)ccnc1Nc1cc(Nc2ccc(-c3ncn(C)n3)cn2)ncc1C(=O)C1CC1 [Compound 15O]"
assay_result = "≤ 6.30"

[[record]]
molecule = "CCC(=O)c1cnc(Nc2ccc(-n3ccnc(C)c3=O)cn2)cc1Nc1cccc(-c2ncn(C)n2)c1OC [Compound 15X]"
assay_result = "6.30 to 7.30"

[[record]]
molecule = "CCC(=O)c1cnc(Nc2ccc(CN(C)CC#N)cn2)cc1Nc1cccc(-c2ncn(C)n2)c1OC"
assay_result = "≤ 6.30"

[[record]]
molecule = "CCC(=O)c1cnc(NC(=O)C2CC2)cc1Nc1cc(F)cc(-c2ncn(C)n2)c1OC [Compound 25A]"
assay_result = "≤ 6.30"

[[record]]
molecule = "CCC(=O)c1cnc(Nc2cnc(OCCN3CCOCC3)cn2)cc1Nc1cccc(-c2ncn(C)n2)c1OC"
assay_result = "≤ 6.30"

[[record]]
molecule = "CCC(=O)c1cnc(Nc2ccc(S(=O)(=O)CC)cn2)cc1Nc1cccc(-c2ncn(C)n2)c1OC [Compound 13G]"
assay_result = "≤ 6.30"

[[record]]
molecule = "CCO[C@H]1C[C@@H](n2ccc(Nc3cc(Nc4cccc(-c5ncn(C)n5)c4OC)c(C(=O)CC)cn3)n2)C1 [Compound 21CC]"
assay_result = "≤ 6.30"

[[record]]
molecule = "CCC(=O)c1cnc(Nc2ccc(O[C@@H]3CCN(C)C3)cn2)cc1Nc1cccc(-c2ncn(C)n2)c1OC [Compound 18V]"
assay_result = "6.30 to 7.30"

[[record]]
molecule = "CCC(=O)c1cnc(Nc2ccc(S(=O)(=O)CC)cn2)cc1Nc1nccc(-c2ncn(C)n2)c1OC [Compound 13J]"
assay_result = "≤ 6.30"

[[record]]
molecule = "CCC(=O)c1cnc(Nc2ccc(CS(C)(=O)=O)cn2)cc1Nc1nccc(-c2ncn(C)n2)c1OC [Compound 13M]"
assay_result = "≤ 6.30"

[[record]]
molecule = "CCC(=O)c1cnc(Nc2ccc(CN(C)C3COC3)cn2)cc1Nc1cccc(-c2ncn(C)n2)c1OC"
assay_result = "≤ 6.30"

[[record]]
molecule = "CCC(=O)c1cnc(Nc2ccc(OC(C)(C)C(=O)O)c(C)n2)cc1Nc1cccc(-c2ncn(C)n2)c1OC [Compound 18L]"
assay_result = "6.30 to 7.30"

[[record]]
molecule = "COc1c(-c2ncn(C)n2)ccnc1Nc1cc(Nc2ccc(-c3cn(C)cn3)cn2)ncc1C(=O)C1CC1 [Compound 15L]"
assay_result = "≤ 6.30"

[[record]]
molecule = "CCC(=O)c1cnc(Nc2cnc(OCCN3CCC(F)(F)C3)cn2)cc1Nc1cccc(-c2ncn(C)n2)c1OC [Compound 18ZZ]"
assay_result = "≤ 6.30"

[[record]]
molecule = "CCC(=O)c1cnc(Nc2ccc(CN3CC4(COC4)C3)cn2)cc1Nc1cccc(-c2ncn(C)n2)c1OC"
assay_result = "6.30 to 7.30"

[[record]]
molecule = "CCC(=O)c1cnc(Nc2ccc(P(C)(C)=O)cn2)cc1Nc1cccc(-c2ncn(C)n2)c1OC [Compound 15DD]"
assay_result = "≤ 6.30"

[[record]]
molecule = "CCC(=O)c1cnc(Nc2ccc(-c3ncn(C)n3)cn2)cc1Nc1cccc(-c2ncn(C)n2)c1OC [Compound 15C]"
assay_result = "≤ 6.30"

[[record]]
molecule = "CCC(=O)c1cnc(Nc2cnc(CCNC)cn2)cc1Nc1cccc(-c2ncn(C)n2)c1OC [Compound 11H]"
assay_result = "≤ 6.30"


Cited source: patent US20230295119A1
